- tested.target: UniProt:P08183
- Sequence (P08183 whole entry): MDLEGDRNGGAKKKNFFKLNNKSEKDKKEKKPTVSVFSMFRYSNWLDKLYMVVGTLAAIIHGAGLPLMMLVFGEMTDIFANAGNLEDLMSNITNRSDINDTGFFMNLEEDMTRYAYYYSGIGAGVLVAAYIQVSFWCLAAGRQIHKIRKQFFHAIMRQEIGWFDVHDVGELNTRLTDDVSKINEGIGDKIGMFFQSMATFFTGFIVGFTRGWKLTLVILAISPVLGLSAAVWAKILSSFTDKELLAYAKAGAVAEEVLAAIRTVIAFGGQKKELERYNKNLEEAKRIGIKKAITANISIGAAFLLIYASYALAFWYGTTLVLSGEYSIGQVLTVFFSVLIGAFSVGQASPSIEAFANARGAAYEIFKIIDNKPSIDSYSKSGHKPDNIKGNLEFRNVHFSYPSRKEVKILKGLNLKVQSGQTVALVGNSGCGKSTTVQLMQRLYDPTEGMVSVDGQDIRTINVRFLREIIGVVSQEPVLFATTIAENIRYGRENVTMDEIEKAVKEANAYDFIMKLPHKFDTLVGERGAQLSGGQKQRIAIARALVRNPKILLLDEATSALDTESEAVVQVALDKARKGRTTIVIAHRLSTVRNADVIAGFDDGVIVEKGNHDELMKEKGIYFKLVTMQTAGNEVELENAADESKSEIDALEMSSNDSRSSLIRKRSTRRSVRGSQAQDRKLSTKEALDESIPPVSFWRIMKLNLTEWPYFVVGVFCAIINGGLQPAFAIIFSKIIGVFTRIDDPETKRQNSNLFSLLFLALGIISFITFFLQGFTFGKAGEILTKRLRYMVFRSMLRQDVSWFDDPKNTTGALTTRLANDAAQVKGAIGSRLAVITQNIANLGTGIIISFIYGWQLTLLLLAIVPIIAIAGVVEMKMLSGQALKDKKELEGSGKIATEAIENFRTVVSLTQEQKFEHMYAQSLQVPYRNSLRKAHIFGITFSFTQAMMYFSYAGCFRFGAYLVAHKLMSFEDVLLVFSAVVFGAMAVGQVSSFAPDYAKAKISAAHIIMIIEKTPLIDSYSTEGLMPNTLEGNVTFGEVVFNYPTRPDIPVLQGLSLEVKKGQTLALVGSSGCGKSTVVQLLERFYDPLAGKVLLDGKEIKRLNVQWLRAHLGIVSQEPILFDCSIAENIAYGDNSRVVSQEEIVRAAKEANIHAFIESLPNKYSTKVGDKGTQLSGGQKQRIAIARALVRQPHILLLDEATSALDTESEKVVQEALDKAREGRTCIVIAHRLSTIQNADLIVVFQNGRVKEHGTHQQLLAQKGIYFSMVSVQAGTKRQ
- protocol.summary: Inhibition of MDR1-mediated efflux-pump activity in mouse L5178Y cells expressing human MDR1 assessed as side scattered light at 2 uM preincubated for 10 mins followed by rhodamine-123 addition measured after 20 mins by flow cytometry (reference value: 194.6 to 286.4)
- Type: cell-based
Friendly reminder: Activity below 200 is TRUE, at or above is FALSE.

CO[C@H]1C=C2[C@@H](CC[C@H](OC(=O)c3ccccc3)C2(C)C)[C@]2(C)CC[C@]3(C)[C@@H]([C@H](C)C/C=C/C(C)(C)O)CC[C@@]3(C)[C@H]12; FALSE
CC(C)=C[C@H](O)C[C@@H](C)[C@H]1CC[C@@]2(C)[C@@H]3[C@@H](O[C@H]4O[C@@H](CO)[C@H](O)[C@H](O)[C@@H]4O)C=C4[C@@H](CC[C@H](O)C4(C)C)[C@]3(C)CC[C@]12C; FALSE
CO[C@H]1C=C2[C@@H](CC[C@H](O)C2(C)C)[C@]2(C)CC[C@]3(C)[C@@H]([C@H](C)C[C@H](C=C(C)C)O[C@@H]4O[C@H](CO)[C@@H](O)[C@H](O)[C@H]4O)CC[C@@]3(C)[C@H]12; FALSE
CO[C@H]1C=C2[C@@H](CC[C@H](O)C2(C)C)[C@]2(C)CC[C@]3(C)[C@@H]([C@H](C)C[C@H](C=C(C)C)OC(=O)c4ccc(Cl)cc4)CC[C@@]3(C)[C@H]12 [KARAVOATE K]; FALSE

Query: Lab note: Activity threshold 200. Does this compound come in strictly under it? CC(C)=C[C@H](O)C[C@@H](C)[C@H]1CC[C@@]2(C)[C@@H]3C=C[C@@]45OC[C@]3(CC[C@]12C)[C@@H]4CC[C@H](O)C5(C)C
Response: FALSE

Query: Please give the result for CC(=O)O[C@H]1C=C2[C@@H](CC[C@H](OC(C)=O)C2(C)C)[C@]2(C)CC[C@]3(C)[C@@H]([C@H](C)C[C@H](C=C(C)C)OC(C)=O)CC[C@@]3(C)[C@H]12 too.
Response: TRUE

Where these numbers come from: ChEMBL document CHEMBL3860050
